Molecular target: human TLR9 (Homo sapiens (Human))
Sequence (Q9NR96 26-1032): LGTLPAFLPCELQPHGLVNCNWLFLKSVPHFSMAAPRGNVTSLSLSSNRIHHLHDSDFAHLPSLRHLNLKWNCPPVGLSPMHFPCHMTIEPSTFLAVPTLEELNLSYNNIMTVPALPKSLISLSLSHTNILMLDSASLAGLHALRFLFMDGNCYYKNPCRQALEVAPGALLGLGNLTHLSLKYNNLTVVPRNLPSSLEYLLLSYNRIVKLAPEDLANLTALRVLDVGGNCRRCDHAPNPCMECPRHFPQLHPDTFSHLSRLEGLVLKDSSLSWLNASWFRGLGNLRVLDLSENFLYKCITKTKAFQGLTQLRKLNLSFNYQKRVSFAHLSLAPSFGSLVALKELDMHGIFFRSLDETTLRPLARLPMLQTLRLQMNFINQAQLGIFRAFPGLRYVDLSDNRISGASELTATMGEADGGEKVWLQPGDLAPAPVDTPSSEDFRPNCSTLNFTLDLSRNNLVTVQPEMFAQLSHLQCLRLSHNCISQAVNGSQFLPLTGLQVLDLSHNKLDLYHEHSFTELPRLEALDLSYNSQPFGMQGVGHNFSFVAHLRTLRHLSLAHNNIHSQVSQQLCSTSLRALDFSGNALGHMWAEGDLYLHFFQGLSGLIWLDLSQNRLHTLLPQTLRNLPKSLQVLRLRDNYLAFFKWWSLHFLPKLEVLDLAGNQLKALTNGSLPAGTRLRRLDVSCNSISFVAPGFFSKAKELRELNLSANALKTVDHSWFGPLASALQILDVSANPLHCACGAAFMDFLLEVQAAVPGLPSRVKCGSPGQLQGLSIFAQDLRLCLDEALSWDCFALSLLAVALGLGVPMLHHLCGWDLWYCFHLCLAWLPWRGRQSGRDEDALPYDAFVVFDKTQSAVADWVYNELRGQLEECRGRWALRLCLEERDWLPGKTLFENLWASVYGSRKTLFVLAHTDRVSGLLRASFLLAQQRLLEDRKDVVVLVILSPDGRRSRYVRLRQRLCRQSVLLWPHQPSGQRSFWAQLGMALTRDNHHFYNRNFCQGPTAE
Experiment: TLR9 inhibition reporter assay (HEK-Blue SEAP)
Conditions: read-out: TLR9 IC50; HEK-Blue human TLR9 cells, ODN2006 5 nM
parameter_measured: IC50 (µM)

[a] Cc1c(-c2[nH]c3ccc(N4CCN(CCCS(C)(=O)=O)[C@H](C)C4)nc3c2C(C)C)cn2ncnc2c1C [Example 856]
[b] Cc1c(-c2[nH]c3ccc(C4CCC(N5CC(C(=O)N(C)C)C5)CC4)nc3c2C(C)C)cn2ncnc2c1C (stereo not shown) [Example 1050]
[c] Cc1c(-c2[nH]c3ccc(C4CC5(C4)CN(C4CCOCC4)C5)nc3c2C(C)C)cn2ncnc2c1C [Example 1024]
[d] Cc1c(-c2[nH]c3ccc(N4CCN(C(=O)CN5CCC(F)(F)C5)CC4)nc3c2C(C)C)cn2ncnc2c1C [Example 919]
[e] Cc1c(-c2[nH]c3ccc(N4CCN(CC#N)C[C@@H]4C)nc3c2C(C)C)cn2ncnc2c1C [Example 810]
Query: Rank descending by IC50: all 5 compounds from above. List each label, following the requested order.
Response: a, d, e, c, b
(a: 27.1 µM, d: 13.9 µM, e: 7.36 µM, c: 4.54 µM, b: 2.66 µM)

====

Biological target: human TLR7 (Homo sapiens (Human), UniProt Q9NYK1)
Sequence (Q9NYK1 27-1049): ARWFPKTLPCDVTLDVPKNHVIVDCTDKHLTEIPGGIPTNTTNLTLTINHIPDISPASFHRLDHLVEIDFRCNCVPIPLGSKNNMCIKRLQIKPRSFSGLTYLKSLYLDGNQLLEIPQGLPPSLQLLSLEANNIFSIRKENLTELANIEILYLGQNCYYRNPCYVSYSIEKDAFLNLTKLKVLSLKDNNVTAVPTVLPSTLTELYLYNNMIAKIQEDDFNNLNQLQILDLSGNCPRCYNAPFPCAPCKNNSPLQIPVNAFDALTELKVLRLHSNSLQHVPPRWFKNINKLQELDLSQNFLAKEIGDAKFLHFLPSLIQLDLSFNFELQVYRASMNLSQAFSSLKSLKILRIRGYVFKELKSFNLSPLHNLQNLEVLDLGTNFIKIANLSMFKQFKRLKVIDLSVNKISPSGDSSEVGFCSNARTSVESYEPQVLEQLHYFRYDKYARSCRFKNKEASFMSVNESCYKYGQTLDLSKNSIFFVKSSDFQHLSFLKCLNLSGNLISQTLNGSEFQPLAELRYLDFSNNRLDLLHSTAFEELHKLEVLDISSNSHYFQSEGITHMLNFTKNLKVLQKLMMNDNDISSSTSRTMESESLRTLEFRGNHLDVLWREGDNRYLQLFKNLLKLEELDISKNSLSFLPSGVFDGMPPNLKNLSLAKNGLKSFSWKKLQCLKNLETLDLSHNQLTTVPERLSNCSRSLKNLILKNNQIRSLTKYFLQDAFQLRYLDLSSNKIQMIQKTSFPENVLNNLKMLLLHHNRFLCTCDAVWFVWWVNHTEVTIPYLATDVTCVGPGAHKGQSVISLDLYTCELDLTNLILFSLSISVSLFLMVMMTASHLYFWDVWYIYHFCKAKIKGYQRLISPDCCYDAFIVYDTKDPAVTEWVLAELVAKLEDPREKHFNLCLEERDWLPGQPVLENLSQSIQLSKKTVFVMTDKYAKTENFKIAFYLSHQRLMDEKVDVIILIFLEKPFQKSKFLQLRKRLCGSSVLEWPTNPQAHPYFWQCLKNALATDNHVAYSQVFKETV
Test: TLR7 inhibition reporter assay (HEK-Blue SEAP)
Format: cell-based
Settings: HEK-Blue cells overexpressing human TLR7, gardiquimod 7.5 μM stimulation, SEAP reporter
pIC50: −log10 of the molar value.
parameter_measured: pIC50

Would you please look over these solved cases?
{"columns": ["molecule", "parameter_measured", "value_reported"],
 "data": [
  ["CCn1cc(-c2[nH]c3ccc(C4CCC(N5CC6(COC6)C5)CC4)nc3c2C(C)C)c2cccnc21 (stereo not shown) [Example 290]", "pIC50", 8.68],
  ["Cc1c(-c2[nH]c3ccc(N4CCCC(NCC5(S(C)(=O)=O)CC5)C4)nc3c2C(C)C)cn2ncnc2c1C (stereo not shown) [Example 87]", "pIC50", 8.46]
]}

[a] COc1cc(-c2[nH]c3ccc(N4CCN(CC5CC5)CC4)nc3c2C(C)C)cn2ncnc12 [Example 120]
[b] COc1ncnc(OC)c1CN(Cc1c(OC)ncnc1OC)C1CCN(c2ccc3[nH]c(-c4cn5ncnc5c(C)c4C)c(C(C)C)c3n2)CC1 [Example 71]
Query: Lower value of pIC50 belongs to which: a or b ? # reply format: chosen label
Response: b
(b: 7.00, a: 8.64)

[P] COc1cc(-c2[nH]c3ccc(C4CCC(N(C)CC(=O)N(C)C)CC4)nc3c2C(C)C)cn2ncnc12 (stereo not shown) [Example 226]
[Q] COc1cc(-c2[nH]c3cc(C)c(C4CCC(NC5CCOC5)CC4)nc3c2C(C)C)cn2ncnc12 (stereo not shown) [Example 328]
[R] COc1cc(-c2[nH]c3ccc(N4CCNCC4)nc3c2C(C)C)cn2ncnc12 [Example 89]
Query: Sort (3 molecules) by pIC50: min first. Output spec: labels arranged per the requested ranking.
Response: P, R, Q

====

Molecular target: UniProt:Q9NR96
Test: TLR9 inhibition reporter assay (HEK-Blue SEAP)
Conditions: read-out: TLR9 IC50; HEK-Blue cells overexpressing human TLR9, SEAP reporter, ODN2006 5 nM
pIC50: −log10 of the molar value.
parameter_measured: pIC50

Some compounds with known pIC50 results, for comparison:
{"columns": ["compound", "value_reported"],
 "data": [
  ["Cc1c(-c2[nH]c3ccc(N4C[C@H](C)N(C(=O)CCN(C)C)[C@@H](C)C4)nc3c2C(C)C)cn2ncnc2c1C", 5.09],
  ["Cc1cc(-c2[nH]c3ccc(C4CCNCC4)nc3c2C(C)C)cn2cnnc12", 6.14],
  ["Cc1cc(-c2[nH]c3ccc(C4CCNCC4)nc3c2C(C)C)nn(C)c1=O", 5.15],
  ["Cc1c(-c2[nH]c3ccc(C4CCN(CC(N)=O)CC4)nc3c2C(C)C)cn2ncnc2c1C", 5.42],
  ["Cc1c(-c2[nH]c3ccc(C4CCNCC4)nc3c2C(C)C)cn(C)c(=O)c1C", 6.44],
  ["COc1cc(-c2[nH]c3ccc(C4CCC(N(CCS(C)(=O)=O)CCS(C)(=O)=O)C4)nc3c2C(C)C)cn2ncnc12 (stereo not drawn) [Example 717]", 5.60]
]}

[P] CNC(=O)CN1CCC(c2ccc3[nH]c(-c4cc(C)c(=O)n(C)c4)c(C(C)C)c3n2)CC1
[Q] Cc1c(-c2[nH]c3ccc(C4CCN(CC(C)C)CC4)nc3c2C(C)C)cn(C)c(=O)c1Cl
[R] CCN(CC(=O)N(C)C)C1CCC(c2nc3c(C(C)C)c(-c4cn5ncnc5c(C)c4C)[nH]c3cc2F)CC1 (stereo not drawn) [Example 509]
Query: Output the entries ranked by pIC50 from maximum down to minimum. Please list the labels according to the requested order.
Response: Q, P, R
(Q: 5.66, P: 5.32, R: 5.04)

====

Biological target: human TLR9 (Homo sapiens (Human))
Experiment: TLR9 inhibition reporter assay (HEK-Blue SEAP);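 further: SEAP driven by an IFN-β minimal promoter with NF-κB and AP-1 sites, read after 22 h, compounds dosed 0.05 nM–50 µM, inhibition scaled between agonist plus DMSO and reference-inhibitor wells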
Details: read-out: TLR9 IC50; HEK-Blue cells overexpressing human TLR9, ODN2006 5 nM stimulation, SEAP reporter
pIC50: −log10 of the molar value.
parameter_measured: pIC50

{"columns": ["compound", "value_reported"],
 "data": [
  ["Cc1c(-c2[nH]c3ccc(C4CCC(N5CC(F)(F)C5)CC4)nc3c2C(C)C)cn2ncnc2c1C (stereo not drawn) [Example 374]", 4.67]
]}

[1] Cc1c(-c2[nH]c3ccc(C4CCC(N5CCC(F)(F)CC5)CC4)nc3c2C(C)C)cn2ncnc2c1C (stereo not drawn) [Example 381]
[2] COc1cc(-c2[nH]c3ccc(C4CCC(N(CC#N)C5COC5)CC4)nc3c2C(C)C)cn2ncnc12 (stereo not drawn) [Example 277]
Query: Which gives the smaller pIC50 number: 1 or 2 ? Respond with the label that goes with your answer.
Response: 1
(1: 5.09, 2: 5.86)

[A] Cc1c(-c2[nH]c3ccc(C4CCC(NC(C)C)CC4)nc3c2C(C)C)cn2ncnc2c1C (stereo not drawn) [Example 363]
[B] COc1cc(-c2[nH]c3cc(F)c(C4CCC(NCC5(C)COC5)CC4)nc3c2C(C)C)cn2ncnc12 (stereo not drawn) [Example 341]
Query: Form: Entry with minimum pIC50 (choose one): A / B // caller expects the label of the chosen entry
Response: B

====

Biological target: UniProt Q9NYK1
Experiment: TLR7 inhibition reporter assay (HEK-Blue SEAP)
Assay type: cell-based
Conditions: HEK-Blue cells overexpressing human TLR7, gardiquimod 7.5 μM stimulation, SEAP reporter
pIC50: −log10 of the molar value.
parameter_measured: pIC50

{"columns": ["molecule", "value_reported"],
 "data": [
  ["COc1cc(-c2[nH]c3cc(C)c(C4CCC(N(C)C5COC5)CC4)nc3c2C(C)C)cn2ncnc12 (stereo not shown) [Example 331]", 8.77]
]}

[I] Cc1c(-c2[nH]c3ccc(C4CCC(N(C)C5CC5)CC4)nc3c2C(C)C)cn2ncnc2c1C (stereo not shown) [Example 387]
[II] CC(C)c1c(-c2cn(C)c3ncccc23)[nH]c2ccc(C3CCC(NCCS(C)(=O)=O)CC3)nc12 (stereo not shown) [Example 247]
[III] CC(C)c1c(-c2cn(C)c3ncccc23)[nH]c2ccc(N3CC(NCC(=O)N(C)C)C3)nc12 [Example 37]
Query: List from greatest to least pIC50. Provide the labels, sequenced as the question asks.
Response: II, I, III

====

Target: human TLR7 (Homo sapiens (Human))
Assay: TLR7 inhibition reporter assay (HEK-Blue SEAP)
Assay type: cell-based
Settings: HEK-Blue cells overexpressing human TLR7, SEAP reporter, gardiquimod 7.5 μM
parameter_measured: IC50 (nM)

{"columns": ["molecule", "IC50 [nM]"],
 "data": [
  ["Cc1c(-c2[nH]c3ccc(C4CCC(NC(C)(C)C(=O)N(C)C)CC4)nc3c2C(C)C)cn2ncnc2c1C (stereo not shown)", 3.3]
]}

[1] Cc1c(-c2[nH]c3ccc(C4CCC(NCCC#N)CC4)nc3c2C(C)C)cn2ncnc2c1C (stereo not shown)
[2] Cc1cc(-c2[nH]c3ccc(-c4cnn(C5CCNCC5)c4)nc3c2C(C)C)cn2ncnc12
[3] COc1cc(-c2[nH]c3ccc(OCC4CCN(C)CC4)nc3c2C(C)C)cn2ncnc12
Query: Output the entries ranked by IC50 from maximum down to minimum. Give me the labels in the order the question wants.
Response: 2, 3, 1

====

Target: human TLR8 (Homo sapiens (Human), UniProt Q9NR97)
Sequence (Q9NR97 27-1041): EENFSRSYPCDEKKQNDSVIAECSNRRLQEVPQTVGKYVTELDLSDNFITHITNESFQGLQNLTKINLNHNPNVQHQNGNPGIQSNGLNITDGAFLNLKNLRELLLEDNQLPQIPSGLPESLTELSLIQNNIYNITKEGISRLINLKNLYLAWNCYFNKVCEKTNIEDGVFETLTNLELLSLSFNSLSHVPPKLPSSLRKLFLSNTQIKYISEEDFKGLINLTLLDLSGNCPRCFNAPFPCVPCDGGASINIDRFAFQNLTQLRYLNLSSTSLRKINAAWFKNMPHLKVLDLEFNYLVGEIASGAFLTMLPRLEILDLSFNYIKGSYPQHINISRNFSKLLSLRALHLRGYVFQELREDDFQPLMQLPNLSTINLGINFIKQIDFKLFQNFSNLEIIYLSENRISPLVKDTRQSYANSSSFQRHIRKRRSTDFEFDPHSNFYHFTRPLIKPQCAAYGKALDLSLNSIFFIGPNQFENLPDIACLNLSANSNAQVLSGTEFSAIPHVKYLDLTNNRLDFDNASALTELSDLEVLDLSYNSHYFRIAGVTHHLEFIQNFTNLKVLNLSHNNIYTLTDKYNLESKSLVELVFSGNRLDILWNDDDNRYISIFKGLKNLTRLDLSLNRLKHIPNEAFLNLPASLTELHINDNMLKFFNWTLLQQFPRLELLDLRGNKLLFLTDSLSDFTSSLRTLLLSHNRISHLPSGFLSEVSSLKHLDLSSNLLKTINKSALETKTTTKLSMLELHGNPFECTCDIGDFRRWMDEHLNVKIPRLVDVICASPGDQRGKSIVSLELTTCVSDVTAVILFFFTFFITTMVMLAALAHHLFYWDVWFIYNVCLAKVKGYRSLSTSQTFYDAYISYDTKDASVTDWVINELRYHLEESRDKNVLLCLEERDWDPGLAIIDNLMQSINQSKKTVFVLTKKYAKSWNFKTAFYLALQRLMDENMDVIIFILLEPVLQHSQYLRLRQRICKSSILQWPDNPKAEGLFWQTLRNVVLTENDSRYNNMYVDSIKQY
Experiment: TLR8 inhibition reporter assay (HEK-Blue SEAP)
Details: read-out: TLR8 IC50; HEK-Blue cells overexpressing human TLR8, R848 15.9 μM stimulation, SEAP reporter
parameter_measured: IC50 (nM)

These recorded examples may help you get a feel for the data.
{"columns": ["compound", "study_system", "IC50, nM"],
 "data": [
  ["COCc1cc(-c2[nH]c3ccc(C4CCC(NC5COC5)CC4)nc3c2C(C)C)cn2ncnc12 (stereo not shown) [Example 229]", "human TLR8 (Homo sapiens (Human), UniProt Q9NR97)", 18],
  ["Cc1c(-c2[nH]c3ccc(C4CCC(NC5COC5)CC4)nc3c2C(C)C)cn2ncnc2c1C (stereo not shown) [Example 351]", "human TLR8 (Homo sapiens (Human), UniProt Q9NR97)", 4.3],
  ["COc1cc(-c2[nH]c3ccc(C4CCC(N(C)C)CC4)nc3c2C(C)C)cn2ncnc12 (stereo not shown) [Example 187]", "human TLR8 (Homo sapiens (Human), UniProt Q9NR97)", 20],
  ["CC(C)c1c(-c2cn(C)c3ncccc23)[nH]c2ccc(C3CCC(NC4COC4)CC3)nc12 (stereo not shown) [Example 184]", "human TLR8 (Homo sapiens (Human), UniProt Q9NR97)", 18],
  ["CC(C)c1c(-c2cc(CO)c3ncnn3c2)[nH]c2ccc(C3CCC(N(C)C4COC4)CC3)nc12 (stereo not shown) [Example 246]", "human TLR8 (Homo sapiens (Human), UniProt Q9NR97)", 2.6],
  ["Cc1c(-c2[nH]c3ccc(C4CCC(NCCC(F)(F)F)CC4)nc3c2C(C)C)cn2ncnc2c1C (stereo not shown) [Example 376]", "human TLR8 (Homo sapiens (Human), UniProt Q9NR97)", 1.2],
  ["COc1cc(-c2[nH]c3ccc(C4CCC(N(C)Cc5ncccn5)CC4)nc3c2C(C)C)cn2ncnc12 (stereo not shown) [Example 208]", "human TLR8 (Homo sapiens (Human), UniProt Q9NR97)", 16],
  ["Cc1c(-c2[nH]c3ccc(C4CCC(N(C)C5COC5)CC4)nc3c2C(C)C)cn(C)c(=O)c1C (stereo not shown) [Example 254]", "human TLR8 (Homo sapiens (Human), UniProt Q9NR97)", 27]
]}

[A] COc1cc(-c2[nH]c3ccc(C4CCC(N(C)C5CC5)CC4)nc3c2C(C)C)cn2ncnc12 (stereo not shown) [Example 171]
[B] COCCN(C)C1CCC(c2ccc3[nH]c(-c4cc(OC)c5ncnn5c4)c(C(C)C)c3n2)CC1 (stereo not shown) [Example 198]
Query: Hi there, can you help? I need to know whether A or B has lower measured IC50. # respond with the chosen item's label
Response: A
(A: 1.8 nM, B: 7.8 nM)
